TARGET UNDER TEST: serotonin (5-HT) reuptake (Rattus norvegicus)
Construct: synaptosomes are freshly isolated from areas of the rat brain; from tissue; host or cells: rat brain synaptosomes (P2 fraction)
Sequence (P31652 whole entry): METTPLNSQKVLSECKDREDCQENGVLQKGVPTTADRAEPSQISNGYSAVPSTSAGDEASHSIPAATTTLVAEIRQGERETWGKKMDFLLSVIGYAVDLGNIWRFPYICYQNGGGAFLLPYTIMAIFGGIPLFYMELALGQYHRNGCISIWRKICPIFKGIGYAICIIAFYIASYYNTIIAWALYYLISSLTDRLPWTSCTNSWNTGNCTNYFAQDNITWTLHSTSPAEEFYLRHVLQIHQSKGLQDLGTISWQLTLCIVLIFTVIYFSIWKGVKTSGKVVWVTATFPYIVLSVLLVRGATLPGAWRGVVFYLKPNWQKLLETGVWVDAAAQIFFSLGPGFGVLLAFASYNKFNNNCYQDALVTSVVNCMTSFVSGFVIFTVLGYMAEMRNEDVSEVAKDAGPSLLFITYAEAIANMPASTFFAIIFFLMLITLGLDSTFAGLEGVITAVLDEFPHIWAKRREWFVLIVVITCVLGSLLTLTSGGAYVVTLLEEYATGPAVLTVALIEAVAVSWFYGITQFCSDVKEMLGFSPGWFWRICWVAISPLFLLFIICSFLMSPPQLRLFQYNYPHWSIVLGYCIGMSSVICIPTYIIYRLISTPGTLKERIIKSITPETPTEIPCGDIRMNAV
PROCEDURE SUMMARY: Inhibition of serotonin (5HT) reuptake in synaptosomes from rat brain
Type: biochemical
CONDITION: test concentration of 10 μM; read-out: 5-HT (inhibition of reuptake of serotonin, % inhibition)
Give label 1 when the value for inhibition at 10 µM is at least 90%. Give label 0 when it is less.

COMPOUND	ASSIGNED CLASS
COc1cc(C)c(S(=O)(=O)N2CCC(OCC(=O)NC3CCC(C(c4ccccc4)N(C)C)CC3)C2)c(C)c1 (stereo not shown)	label 0
COc1ccc(S(=O)(=O)N2CCCCC2COCC(=O)NCC2CCC(C(c3cccs3)N(C)C)CC2)c(OC)c1 (stereo not shown)	label 0
CN(C)C(c1cccs1)C1CCC(CNC(=O)COCCN(C)S(=O)(=O)c2cccc(C(F)(F)F)c2)CC1 (stereo not shown)	label 0
Cc1cc(C)c(S(=O)(=O)N2CCC(OCC(=O)NC3CCC(C(c4cccc(F)c4)N(C)C)CC3)C2)c(C)c1 (stereo not shown)	label 0
COc1ccc(S(=O)(=O)N2CCCCC2COCC(=O)NCC2CCC(C(c3ccccc3)N(C)C)CC2)cc1 (stereo not shown)	label 1

----------
TARGET UNDER TEST: human μ opiate receptor (Homo sapiens)
Construct: purchased PerkinElmer Life Sciences, Zaventem, Belgium RB-HOM; host or cells: CHO-K1 cells (membrane preparation)
PROCEDURE SUMMARY: Affinity for the human μ opiate receptor ([3H]-naloxone displacement, CHO-K1 receptor membrane preparation, SPA)
Format: binding
CONDITION: test concentration of 1 μM
Recorded μ (binding on the μ opioid receptor, % inhibition), one value per entry.
ASSAY METRIC: μ (binding on the μ opioid receptor, % inhibition)

COMPOUND	REPORTED VALUE
CN(C)C(c1cccs1)C1CCC(CCNC(=O)COCCN(C)S(=O)(=O)c2c(F)c(F)c(F)c(F)c2F)CC1 (stereo not shown)	48%
COc1ccc(S(=O)(=O)N2CCCCC2COCC(=O)NC2CCC(C(c3cccs3)N(C)C)CC2)cc1 (stereo not shown)	79%
CN(C)C(c1ccc(Cl)cc1)C1CCC(CCNC(=O)COCCN(C)S(=O)(=O)c2cccc(C(F)(F)F)c2)CC1 (stereo not shown)	67%
CN(C)C(c1ccc(Cl)cc1)C1CCC(CCNC(=O)COC2CCCCC2N(C)S(=O)(=O)c2ccc(Cl)c(Cl)c2)CC1 (stereo not shown)	50%
Cc1cc(C)c(S(=O)(=O)N2CCC(OCC(=O)NCCC3CCC(C(c4cccc(F)c4)N(C)C)CC3)C2)c(C)c1 (stereo not shown)	77%
CN(C)C(c1ccccc1)C1CCC(NC(=O)COc2ccc(Cl)cc2)CC1 (stereo not shown)	72%
CN(C)C(c1cccc(F)c1)C1CCC(NC(=O)COC2CCN(S(=O)(=O)c3ccc(Cl)cc3Cl)C2)CC1 (stereo not shown)	74%

----------
TARGET UNDER TEST: human μ opiate receptor (Homo sapiens, UniProt P35372)
Construct: purchased PerkinElmer Life Sciences, Zaventem, Belgium RB-HOM; host or cells: CHO-K1 cells (membrane preparation)
Sequence (P35372 whole entry): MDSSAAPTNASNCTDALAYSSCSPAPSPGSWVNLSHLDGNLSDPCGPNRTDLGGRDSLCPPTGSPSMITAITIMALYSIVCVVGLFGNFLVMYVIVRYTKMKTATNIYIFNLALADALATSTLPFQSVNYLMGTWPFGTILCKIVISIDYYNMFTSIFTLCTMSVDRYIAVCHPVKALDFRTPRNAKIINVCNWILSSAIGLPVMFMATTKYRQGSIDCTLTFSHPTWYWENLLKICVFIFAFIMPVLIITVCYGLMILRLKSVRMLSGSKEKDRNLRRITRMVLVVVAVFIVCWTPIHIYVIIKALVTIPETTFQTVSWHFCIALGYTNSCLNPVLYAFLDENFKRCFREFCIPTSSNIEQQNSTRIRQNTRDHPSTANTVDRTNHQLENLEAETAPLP
PROCEDURE SUMMARY: Affinity for the human μ opiate receptor ([3H]-naloxone displacement, CHO-K1 receptor membrane preparation, SPA)
Format: binding
CONDITION: test concentration of 1 μM; read-out: μ (binding on the μ opioid receptor, % inhibition)

COMPOUND	TARGET UNDER TEST	UNIT SPEC	inhibition at 1 µM
COc1ccc(S(=O)(=O)N(C)CCOCC(=O)NC2CCC(C(c3cccs3)N(C)C)CC2)cc1 (centres unmarked)	human μ opiate receptor (Homo sapiens, UniProt P35372)	%	90
COc1cc(C)c(S(=O)(=O)N2CCN(CCOCC(=O)NCC3CCC(C(c4ccccc4)N(C)C)CC3)CC2)c(C)c1C (centres unmarked)	human μ opiate receptor (Homo sapiens, UniProt P35372)	%	95
CN(C)C(c1cccs1)C1CCC(NC(=O)COC2CCN(S(=O)(=O)c3ccccc3)C2)CC1 (centres unmarked)	human μ opiate receptor (Homo sapiens, UniProt P35372)	%	83
CCN(CCOCC(=O)NCCC1CCC(C(c2cccs2)N(C)C)CC1)S(=O)(=O)c1c(C)cc(OC)c(C)c1C (centres unmarked)	human μ opiate receptor (Homo sapiens, UniProt P35372)	%	94
CN(C)C(c1cccs1)C1CCC(CNC(=O)COC2CCN(S(=O)(=O)c3cccc(C(F)(F)F)c3)C2)CC1 (centres unmarked)	human μ opiate receptor (Homo sapiens, UniProt P35372)	%	97
CN(C)C(c1cccs1)C1CCC(CNC(=O)COCCN(Cc2ccccc2)S(=O)(=O)c2ccccc2)CC1 (centres unmarked)	human μ opiate receptor (Homo sapiens, UniProt P35372)	%	94
CN(C)C(c1ccccc1)C1CCC(CNC(=O)COCCN(C)S(=O)(=O)c2c(Cl)cccc2Cl)CC1 (centres unmarked)	human μ opiate receptor (Homo sapiens, UniProt P35372)	%	98
CN(C)C(c1cccs1)C1CCC(NC(=O)COC2CCCN(S(=O)(=O)c3ccccc3)C2)CC1 (centres unmarked)	human μ opiate receptor (Homo sapiens, UniProt P35372)	%	96
CN(C)C(c1ccccc1)C1CCC(CNC(=O)COCC2CCCN2S(=O)(=O)c2ccc(Cl)c(Cl)c2)CC1 (centres unmarked)	human μ opiate receptor (Homo sapiens, UniProt P35372)	%	98
CN(C)C(c1cccs1)C1CCC(CCNC(=O)COC2CCN(S(=O)(=O)c3ccc(F)cc3)C2)CC1 (centres unmarked)	human μ opiate receptor (Homo sapiens, UniProt P35372)	%	87
COc1cc(C)c(S(=O)(=O)N2CCC(OCC(=O)NCCC3CCC(C(c4cccs4)N(C)C)CC3)C2)c(C)c1 (centres unmarked)	human μ opiate receptor (Homo sapiens, UniProt P35372)	%	87
CCN(CCOCC(=O)NCC1CCC(C(c2cccc(F)c2)N(C)C)CC1)S(=O)(=O)c1c(C)cc(OC)c(C)c1C (centres unmarked)	human μ opiate receptor (Homo sapiens, UniProt P35372)	%	92
CN(C)C(c1ccccc1)C1CCC(NC(=O)COCCN(C)S(=O)(=O)c2c(Cl)cccc2Cl)CC1 (centres unmarked)	human μ opiate receptor (Homo sapiens, UniProt P35372)	%	89
CN(C)C(c1cccc(F)c1)C1CCC(CNC(=O)COCCN(C)S(=O)(=O)c2ccc(Cl)cc2)CC1 (centres unmarked)	human μ opiate receptor (Homo sapiens, UniProt P35372)	%	87
CN(C)C(c1cccc(F)c1)C1CCC(CCNC(=O)COCCN(C)S(=O)(=O)c2ccc(Cl)cc2)CC1 (centres unmarked)	human μ opiate receptor (Homo sapiens, UniProt P35372)	%	87
COc1ccc(S(=O)(=O)N2CCCCC2COCC(=O)NCC2CCC(C(c3cccs3)N(C)C)CC2)c(OC)c1 (centres unmarked)	human μ opiate receptor (Homo sapiens, UniProt P35372)	%	96
CN(C)C(c1cccs1)C1CCC(CCNC(=O)COCCN(C)S(=O)(=O)c2ccc(Cl)cc2)CC1 (centres unmarked)	human μ opiate receptor (Homo sapiens, UniProt P35372)	%	96
COc1ccc(S(=O)(=O)N2Cc3ccccc3CC2COCC(=O)NCC2CCC(C(c3cccs3)N(C)C)CC2)cc1 (centres unmarked)	human μ opiate receptor (Homo sapiens, UniProt P35372)	%	99
CN(C)C(c1ccccc1)C1CCC(CNC(=O)COC2CCN(S(=O)(=O)c3ccccc3)C2)CC1 (centres unmarked)	human μ opiate receptor (Homo sapiens, UniProt P35372)	%	83
COc1cc(C)c(S(=O)(=O)N(C)CCOCC(=O)NC2CCC(C(c3ccccc3)N(C)C)CC2)c(C)c1C (centres unmarked)	human μ opiate receptor (Homo sapiens, UniProt P35372)	%	93
CN(C)C(c1cccs1)C1CCC(CCNC(=O)COCCN2CCN(S(=O)(=O)c3ccccc3)CC2)CC1 (centres unmarked)	human μ opiate receptor (Homo sapiens, UniProt P35372)	%	92
COc1cc(C)c(S(=O)(=O)N(CCOCC(=O)NC2CCC(C(c3ccccc3)N(C)C)CC2)Cc2ccccc2)c(C)c1C (centres unmarked)	human μ opiate receptor (Homo sapiens, UniProt P35372)	%	85
CN(C)C(c1cccc(F)c1)C1CCC(CNC(=O)COC2CCN(S(=O)(=O)c3cccc(C(F)(F)F)c3)C2)CC1 (centres unmarked)	human μ opiate receptor (Homo sapiens, UniProt P35372)	%	83
COc1cc(C)c(S(=O)(=O)N2CCC(OCC(=O)NC3CCC(C(c4ccccc4)N(C)C)CC3)C2)c(C)c1 (centres unmarked)	human μ opiate receptor (Homo sapiens, UniProt P35372)	%	87
CN(C)C(c1ccccc1)C1CCC(CNC(=O)COCCN(C)S(=O)(=O)c2cccc(C(F)(F)F)c2)CC1 (centres unmarked)	human μ opiate receptor (Homo sapiens, UniProt P35372)	%	91
Cc1ccc(S(=O)(=O)N(C)CCOCC(=O)NCCC2CCC(C(c3cccs3)N(C)C)CC2)cc1 (centres unmarked)	human μ opiate receptor (Homo sapiens, UniProt P35372)	%	95
COc1ccc(S(=O)(=O)N2Cc3ccccc3CC2COCC(=O)NC2CCC(C(c3ccccc3)N(C)C)CC2)cc1 (centres unmarked)	human μ opiate receptor (Homo sapiens, UniProt P35372)	%	96
CN(C)C(c1cccc(F)c1)C1CCC(CNC(=O)COCCN(C)S(=O)(=O)c2ccc(Cl)cc2Cl)CC1 (centres unmarked)	human μ opiate receptor (Homo sapiens, UniProt P35372)	%	91
CN(C)C(c1ccccc1)C1CCC(CNC(=O)COCCN(Cc2ccccc2)S(=O)(=O)c2ccccc2)CC1 (centres unmarked)	human μ opiate receptor (Homo sapiens, UniProt P35372)	%	98
